Quick reference for melting point among some compounds

Example entries and their recorded answers appear below.
In [3]: df
Out[3]:
                                   compound  attribute_measured   assay_result
0  COc1cc(/C=C/C(=O)c2ccc(OCCCCC(=O)O)cc2)cc(OC)c1OC [2a]       melting point  102 to 105 °C
1  COc1cc(-c2cc(-c3ccc(OCCCCC(=O)NO)cc3)[nH]c(=O)c2C#N)cc(OC)c1OC [5a]       melting point  232 to 238 °C
2  COc1cc(-c2cc(-c3ccc(OCCCCCCC(=O)NO)cc3)[nH]c(=O)c2C#N)cc(OC)c1OC [5c]       melting point  170 to 176 °C
3  COc1cc(/C=C/C(=O)c2ccc(OCCCCCC(=O)O)cc2)cc(OC)c1OC [2b]       melting point  138 to 140 °C
4  COc1cc(-c2cc(-c3ccc(OCCCCCC(=O)NO)cc3)[nH]c(=O)c2C#N)cc(OC)c1OC [5b]       melting point  198 to 204 °C
5  COc1cc(-c2cc(-c3ccc(OCCCCCCC(=O)O)cc3)[nH]c(=O)c2C#N)cc(OC)c1OC [3c]       melting point  168 to 170 °C
6  COc1cc(/C=C/C(=O)c2ccc(OCCCCC(=O)NO)cc2)cc(OC)c1OC [4a]       melting point  220 to 224 °C
7  COc1cc(/C=C/C(=O)c2ccc(OCCCCCCC(=O)O)cc2)cc(OC)c1OC [2c]       melting point  112 to 115 °C
8  COc1cc(-c2cc(-c3ccc(OCCCCC(=O)O)cc3)[nH]c(=O)c2C#N)cc(OC)c1OC [3a]       melting point  224 to 228 °C

melting point in this record for COc1cc(/C=C/C(=O)c2ccc(OCCCCCCC(=O)NO)cc2)cc(OC)c1OC [4c] : 122 to 128 °C
